// data source = ChEMBL document CHEMBL1156597

test system: DU-145; assay: Cytotoxicity against human DU145 cells after 48 hrs by SRB assay; type: functional, cell-based; conditions: Homo sapiens, DU-145, 48 h; read-out: LC50 (the source's name)
Items are presented alongside their recorded CC50.
Give the value in nM but do not write nM after it.

smiles-text	assayed-target	CC50 (nM)
C/C=C1\NC(=O)[C@H](Cc2ccc(Cl)c(Cl)c2)NC(=O)[C@@H](C(C)C)NC(=O)[C@@H]([C@H](C)CC)NC(=O)[C@H](NC(=O)[C@H](NC(=O)[C@H](CCCN)NC(=O)[C@H]2CCCN2C(=O)[C@H](NC(=O)[C@@H](NC(=O)[C@@H](NC(=O)[C@H](NC(=O)CC[C@@H](C)CC)C(C)C)[C@@H](C)O)C(C)C)C(C)C)[C@H](C)CC)[C@H](C)OC(=O)[C@H](C(C)C)NC1=O	DU-145	734
C/C=C1\NC(=O)[C@H](Cc2ccc(F)cc2)NC(=O)[C@@H](C(C)C)NC(=O)[C@@H]([C@H](C)CC)NC(=O)[C@H](NC(=O)[C@H](NC(=O)[C@H](CCCN)NC(=O)[C@H]2CCCN2C(=O)[C@H](NC(=O)[C@@H](NC(=O)[C@@H](NC(=O)[C@H](NC(=O)CC[C@@H](C)CC)C(C)C)[C@@H](C)O)C(C)C)C(C)C)[C@H](C)CC)[C@H](C)OC(=O)[C@H](C(C)C)NC1=O	DU-145	893

# query: CC50 of entry C/C=C1\NC(=O)[C@H](Cc2ccccc2)NC(=O)[C@@H](C(C)C)NC(=O)[C@@H]([C@H](C)CC)NC(=O)[C@H](NC(=O)[C@H](NC(=O)[C@H](CCCN)NC(=O)[C@H]2CCCN2C(=O)[C@H](NC(=O)[C@@H](NC(=O)[C@@H](NC(=O)[C@H](NC(=O)CC[C@@H](C)CC)C(C)C)[C@@H](C)O)C(C)C)C(C)C)[C@H](C)CC)[C@H](C)OC(=O)[C@H](C(C)C)NC1=O 347
